tested on: MCF7:WS8 cells; experiment: CyQuant genomic DNA proliferation assay, fulvestrant dose response; type: cell-based; details: MCF7:WS8, control line (ORF stuffer), estradiol 1 nM, Hill equation fit
Readout Kind: IC50 (nM)

compound="C[C@]12CC[C@@H]3c4ccc(O)cc4C[C@@H](CCCCCCCCC[S+]([O-])CCCC(F)(F)C(F)(F)F)[C@H]3[C@@H]1CC[C@@H]2O (stereo partly shown)" readout_kind=IC50 measured_value=34

Every entry's value here was drawn from patent US20260200971A1.
